Reported pIC50 values follow for various molecules
- Experimental Target: protein kinase C (mixed isozymes)
- Method Notes: Protein kinase C TCA precipitation assay
- Experimental Conditions: Table 5; read-out: PKC IC50
pIC50: −log10 of the molar value.

>>> observed("CC(C)c1nn(-c2c(Cl)cccc2Cl)c2nc(Cc3ccc(O)c(CN4CCN(C(C)C)CC4)c3)[nH]c(=O)c12")
"< 5.00"

Next:
Which pIC50 value is on record for CC(C)N1CCN(CCOc2ccc(-c3[nH]nc4c3C(=O)c3c(NC(=O)NN5CCOCC5)cccc3-4)cc2)CC1 ?
> 5.00

----------
Reported CC50 at 7 days values follow for various compounds
- Method Notes: Cytotoxicity in PBMCs (MTS assay)
- Format: cell-based, human
- Experimental Conditions: human
- Procedure: The activity of the certain compounds of the invention was evaluated in peripheral blood mononuclear cells (PBMCs) infected with the low passage, clinical isolate HIV-1 ROJO to generate a measure of the efficacy of these compounds in acutely infected cells. […] Viral replication was measured by the level of reverse transcriptase activity in the supernatant and cytotoxicity was measured with the MTS assay.

Consider the reported CC50 at 7 days for these compounds:
>>> observed("CC(C)c1nn(-c2c(Cl)cc(Cl)cc2Cl)c2nc(Cc3ccc(OCCO)cc3)[nH]c(=O)c12")
"< 100 nM"
>>> observed("CC(C)c1nn(-c2c(Cl)cccc2Cl)c2nc(Cc3ccc(CN4CCCC4)c(O)c3)[nH]c(=O)c12.Cl")
"< 100 nM"
>>> observed("CC(C)c1nn(-c2c(Cl)cc(Cl)cc2Cl)c2nc(Cc3ccc(CNC(CO)CO)n3C)[nH]c(=O)c12.Cl")
"< 100 nM"
>>> observed("CC(C)c1nn(-c2c(Cl)cccc2Cl)c2nc(Cc3ccc(OCCN4CCOCC4)c(O)c3)[nH]c(=O)c12")
"< 100 nM"

Which CC50 at 7 days value is on record for CC(C)c1nn(-c2c(Cl)cc(Cl)cc2Cl)c2nc(Cc3ccc(OCC(C)(C)O)cc3)[nH]c(=O)c12 ?
< 100 nM
